Where do these numbers come from? They come from patent US12139498B1.

# measured.on: Human M4 (Homo sapiens, UniProt P08173)
# Sequence (P08173 1-479): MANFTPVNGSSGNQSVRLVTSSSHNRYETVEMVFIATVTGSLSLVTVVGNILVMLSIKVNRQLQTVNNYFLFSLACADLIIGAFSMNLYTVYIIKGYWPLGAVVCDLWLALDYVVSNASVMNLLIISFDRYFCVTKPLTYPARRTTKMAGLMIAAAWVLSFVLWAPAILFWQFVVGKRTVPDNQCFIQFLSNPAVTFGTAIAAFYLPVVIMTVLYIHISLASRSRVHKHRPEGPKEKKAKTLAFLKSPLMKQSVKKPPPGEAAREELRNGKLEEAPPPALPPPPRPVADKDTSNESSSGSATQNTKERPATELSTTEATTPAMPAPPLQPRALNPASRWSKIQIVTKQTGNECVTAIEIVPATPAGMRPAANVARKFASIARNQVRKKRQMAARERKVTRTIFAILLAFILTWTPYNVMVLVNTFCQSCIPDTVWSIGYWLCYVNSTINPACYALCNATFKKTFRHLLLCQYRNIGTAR
# assay.name: M4 cell-based functional assay (calcium mobilization)
# Design: expressed in transfected cells
# condition.notes: % ACh maximum at 30 μM
metric.name: Emax at 30 µM (%)
Note: unit % is implicit; provide only the numeric part.

Cc1cc2nccnc2nc1N1CCc2nc(-c3cccs3)sc2C1 [Compound 56] :: 50
Cc1c(C#N)nnc(N2CCc3nc(Nc4ccccc4F)sc3C2)c1C [Compound 5] :: 43

Prompt: Please look up its Emax at 30 µM: Cc1cc2nccnc2nc1N1CCc2nc(C(C)C)sc2C1 [Compound 64]
Completion: 76
